- Method: Therapeutic index (TI) was determined by dividing the ID50 by the ED50
- Assay type: cell-based
- Study conditions: human, MT4 cells; read-out: TI
Value type: selectivity ratio

• Nc1ccn([C@H]2CC[C@@H](CO)O2)c(=O)n1 = 2450
